// reported microsomal CLint at 1 µM for each item listed
- assay-explanation: Microsomal metabolic stability assay
- Format: in vitro ADME
- condition-details: human, liver microsomes, pH 7.4; 0.5 mg/mL microsomal protein, 1 µM test article, 2 mM NADPH; read-out: Human LM Clint
property-measured: microsomal CLint at 1 µM

>>> result("[2H]C([2H])([2H])NC(=O)c1cnc(NC(=O)C2CC2)cc1Nc1nn(C)c2ccc(C(O)C(F)(F)F)c(OC)c12 (stereo not shown)")
"15.7 µL/min/mg"
>>> result("[2H]C([2H])([2H])OC(c1ccc2c(c(Nc3cc(NC(=O)C4CC4)ncc3C(=O)OC)nn2C([2H])([2H])[2H])c1OC)C(F)F (stereo not shown)")
"29.8 µL/min/mg"
>>> result("[2H]C([2H])([2H])NC(=O)c1cnc(Nc2ccc(F)cn2)cc1Nc1cnn2ccc([C@H](O)C(F)(F)F)c(OC)c12")
"24.6 µL/min/mg"
>>> result("[2H]C([2H])([2H])NC(=O)c1cnc(NC(=O)C2CC2)cc1Nc1cnn2cnc(OC)c(OC)c12")
"5.72 µL/min/mg"
>>> result("[2H]C([2H])([2H])NC(=O)c1cnc(NC(=O)C2CC2)cc1Nc1cnn2ccc([C@@H](O)C(F)(F)F)c(OC)c12")
"10.8 µL/min/mg"
>>> result("[2H]C([2H])([2H])NC(=O)c1cnc(NC(=O)C2CC2)cc1Nc1cnn2cnc(C(C)C(F)(F)F)c(OC)c12 (stereo not shown)")
"12.3 µL/min/mg"
>>> result("COC(=O)c1cnc(NC(=O)C2CC2)cc1Nc1nn(C)c2ccc(C(O)C(F)(F)F)c(OC)c12 (stereo not shown)")
"19.3 µL/min/mg"

---

- system-tested: TYK2-JH2 domain (Homo sapiens)
- Construct: JAK1-JH2 domain or TYK2-JH2 domain enzyme in assay buffer
- assay-explanation: Binding activity test for JH2 domain of TYK2 (Tb-antibody/tracer FRET)
- condition-details: JH2 domain enzyme; 60 min at 25°C, then 4°C overnight; read-out: TYK2 JH2 Binding IC50
pIC50: −log10 of the molar value.
property-measured: pIC50

>>> numeric_value("[2H]C([2H])([2H])OC(=O)c1cnc(NC(=O)C2CC2)cc1Nc1ncn2ncc(CC)c2c1OC")
9.08
>>> numeric_value("[2H]C([2H])([2H])NC(=O)c1cnc(NC(=O)C2CC2)cc1Nc1cnn2ccc([C@H](OC(C)=O)C(F)(F)F)c(OC)c12")
9.76
>>> numeric_value("[2H]C([2H])([2H])NC(=O)c1cnc(NC(=O)C2CC2)cc1Nc1nn(CC)c2ccc(C(O)C(F)(F)F)c(OC)c12 (single isomer, unassigned) [Example 71A]")
9.85
>>> numeric_value("COc1c(-c2cnn(C)n2)ccnc1Nc1cc(NC(=O)C2CC2)ncc1C(C)(F)F")
9.13
>>> numeric_value("COC(=O)c1cnc(NC(=O)C2CC2)cc1Nc1cnn2ccc([C@H](O)C(F)(F)F)c(OC)c12")
9.74
>>> numeric_value("[2H]C([2H])([2H])NC(=O)c1cnc(NC(=O)C2CC23CC3)cc1Nc1cnn2ccc([C@H](O)C(F)(F)F)c(OC)c12 (single isomer, unassigned) [Example 32A]")
10.00

---

Measured JAK1/TYK2 selectivity accompanies every entry in the list below.
- system-tested: TYK2-JH2 domain (Homo sapiens, UniProt P29597)
- Construct: JAK1-JH2 domain or TYK2-JH2 domain enzyme in assay buffer
- Sequence (P29597 589-875 limits assumed): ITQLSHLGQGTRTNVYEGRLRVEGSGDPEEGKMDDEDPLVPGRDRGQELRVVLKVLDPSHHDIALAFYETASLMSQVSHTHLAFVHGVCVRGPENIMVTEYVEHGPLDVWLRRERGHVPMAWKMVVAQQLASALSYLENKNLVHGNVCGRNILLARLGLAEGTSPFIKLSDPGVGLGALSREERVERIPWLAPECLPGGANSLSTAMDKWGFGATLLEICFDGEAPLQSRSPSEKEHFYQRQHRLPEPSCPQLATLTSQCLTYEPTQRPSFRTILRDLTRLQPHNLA
- assay-explanation: Binding activity test for JH2 domain of TYK2 (Tb-antibody/tracer FRET)
- condition-details: ratio of JAK1 JH2 to TYK2 JH2 binding IC50
property-measured: JAK1/TYK2 selectivity

>>> numeric_value("[2H]C([2H])([2H])NC(=O)c1cnc(NC(=O)C2CC2)cc1Nc1cnn2ccc(C#N)c(OC)c12")
68.5
>>> numeric_value("[2H]C([2H])([2H])NC(=O)c1cnc(NC(=O)[C@@H]2C[C@@H]2F)cc1Nc1cnn2ccc(C(F)(F)F)c(OC)c12")
96.5
>>> numeric_value("[2H]C([2H])([2H])NC(=O)c1cnc(Nc2ccc(F)cn2)cc1Nc1cnn2ccc([C@H](O)C(F)(F)F)c(OC)c12")
281.8
>>> numeric_value("CCn1nc(Nc2cc(NC(=O)C3CC3)ncc2C(=O)OC)c2c(OC)c(C(OC)C(F)(F)F)ccc21 (single isomer, unassigned) [Example 66A]")
106.23
